Measured values drawn from patent US20260159520A1 for this set.

tested on: T47D cells; assay: Cellular growth inhibition assay for T47D cells; format: cell-based; settings: Homo sapiens, 72 hours, CellTiter-Glo 2.0
In this section we review reported GI50 values for a set of compounds.

Below: 4 compounds and their reported GI50.
# Smiles Input, GI50
records = [
    ("CCc1cnn2c(NCc3ccc(OCCCCN4CCN(CC5CCN(c6ncc(C(=O)N[C@H]7C(C)(C)[C@H](Oc8ccc(C#N)c(Cl)c8)C7(C)C)cn6)CC5)CC4)nc3)cc(N3CCCC[C@H]3CCO)nc12", "< 500 nM"),
    ("CCc1cnn2c(NCc3ccc(N(C)CCCN4CCN(C5CN(c6ncc(C(=O)N[C@H]7C(C)(C)[C@H](Oc8ccc(C#N)c(Cl)c8)C7(C)C)cn6)C5)CC4)nc3)cc(N3CCCC[C@H]3CCO)nc12", "< 500 nM"),
    ("CN(CCOCCOCCOCCOCCNS(=O)(=O)c1ccc(Nc2ncc(Br)c(Nc3cccc(F)c3C(N)=O)n2)cc1)c1ncc(C(=O)N[C@H]2C(C)(C)[C@H](Oc3ccc(C#N)c(Cl)c3)C2(C)C)cn1", "< 500 nM"),
    ("CCc1cnn2c(NCc3ccc(OCCOCCOCCOC4CCN(c5ccc(C(=O)N[C@H]6C(C)(C)[C@H](Oc7ccc(C#N)c(Cl)c7)C6(C)C)nn5)CC4)nc3)cc(N3CCCC[C@H]3CCO)nc12", "< 500 nM"),
]

Proceed to the following item.
Exam item: Given CCc1cnn2c(NCc3ccc(OCCN4CCN(CC5CCN(c6ncc(C(=O)N[C@H]7C(C)(C)[C@H](Oc8ccc(C#N)c(Cl)c8)C7(C)C)cn6)CC5)CC4)nc3)cc(N3CCCC(F)(F)C3)nc12 , state its recorded GI50.
Marked response: 500 to 1500 nM
